Molecular target: HLA-A*69:01
Assay: IEDB peptide-MHC binding, purified MHC/competitive/fluorescence; filed as Kd, often an IC50 or EC50 that approximates it; bounds were set here for any values at or beyond the usual limits of such assays
Conditions: source organism: Homo sapiens
pKd: −log10 of the molar value.
experimentalReadout: pKd

sequencecontent=SQLPPACPV datavalue="≤ 4.70"
sequencecontent=SLGDPLHQA datavalue="≤ 4.70"
sequencecontent=WSTIWRQLY datavalue="≤ 4.70"

---

Molecular target: HLA-B*18:01
Experiment: IEDB peptide-MHC binding, purified MHC/direct/fluorescence; filed as Kd, often an IC50 or EC50 that approximates it; bounds were set here for any values at or beyond the usual limits of such assays
Conditions: source organism: Brucella suis
pKd: −log10 of the molar value.
experimentalReadout: pKd

sequencecontent=YQRRRRFAI experimentalreadout=pKd datavalue="≤ 4.70"

Sourced from the Immune Epitope Database (IEDB)
